Catalogue of RCDW values
Measurement protocol: Cynomolgus monkey tolerability, hematology (Example 34)
Format: in vivo, cynomolgus monkeys
Study conditions: cynomolgus monkey, in vivo, sc, 35 mg/kg
Value type: RCDW (%)

substance="958499 (ATTAGAGTATGTGGCA; 3-10-3 cEt gapmer, further chemistry not given here) [compound 958499]" quantitative_result=12
substance="1198872 (TGTATGTCAGAAGAGT; chemically modified gapmer, further chemistry not given here) [compound 1198872]" quantitative_result=12
substance="1198440 (AAGTGTATGTCAGAAG; cEt, 2'-MOE, 5-methylcytosine, phosphorothioate modifications, further chemistry not given here) [compound 1198440]" quantitative_result=12
substance="1198605 (GTAATATTGCAATCTG; modified gapmer, further chemistry not given here) [compound 1198605]" quantitative_result=13
substance="1076453 (GTAATATTGCAATCTG; 3-10-3 cEt gapmer, further chemistry not given here) [compound 1076453]" quantitative_result=15
substance="1198623 (CTAAGTAAGGTTTCCC; modified gapmer, further chemistry not given here) [compound 1198623]" quantitative_result=13
